Study Target: CXCR4 homodimer BRET pair [CXCR4/Rluc+CXCR4/YFP] on HEK293 cells (Renilla reniformis, UniProt P61073 1-352; P61073 1-352)
Sequence (P61073 whole entry, chain 1 of 2): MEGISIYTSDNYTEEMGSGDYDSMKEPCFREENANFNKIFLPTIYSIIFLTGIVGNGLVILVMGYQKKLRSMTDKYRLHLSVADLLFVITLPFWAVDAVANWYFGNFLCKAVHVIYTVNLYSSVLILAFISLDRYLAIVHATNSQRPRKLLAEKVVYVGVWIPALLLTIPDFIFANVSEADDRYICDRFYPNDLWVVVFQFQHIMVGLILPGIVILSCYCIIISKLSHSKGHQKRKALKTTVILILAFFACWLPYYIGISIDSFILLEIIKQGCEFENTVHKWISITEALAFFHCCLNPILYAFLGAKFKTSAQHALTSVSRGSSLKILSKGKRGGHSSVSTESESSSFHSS
Sequence (P61073 whole entry, chain 2 of 2): as the sequence (P61073 whole entry, chain 1 of 2) above
Assay Explanation: cell-based or functional assay
Property: % inhibition of SDF-1-induced BRET increase

INSERT INTO assay_data (binder, value) VALUES
  ('humanized Mab hz515H7 VH1 D76N VL2.1 (antibody, V domains shown) VH: EVQLVESGGGLVQPGRSLRLSCTASGFTFTDNYMSWVRQAPGKGLEWVGFIRNKANGYTTEYAASVKGRFTISRDNSKSIAYLQMNSLKTEDTAVYYCARDVGSNYFDYWGQGTLVTVSS VL: DIVMTQSPDSLAVSLGERATMSCKSSQSLFNSRTRKNYLAWYQQKPGQPPKLLIYWASARDSGVPDRFSGSGSETYFTLTISRVQAEDLAVYYCMQSFNLRTFGQGTKVEIK', '~65%'),
  ('humanized Mab hz515H7 VH1 D76N VL2 (antibody, V domains shown) VH: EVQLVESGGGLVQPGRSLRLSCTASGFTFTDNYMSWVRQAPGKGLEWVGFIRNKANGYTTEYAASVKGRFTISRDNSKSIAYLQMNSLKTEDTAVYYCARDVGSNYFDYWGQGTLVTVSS VL: DIVMTQSPSSLAVSLGERATMSCKSSQSLFNSRTRKNYLAWYQQKPGQSPKLLIYWASARDSGVPARFTGSGSETYFTLTISRVQAEDLAVYYCMQSFNLRTFGQGTKVEIK', '~88%'),
  ('humanized Mab hz515H7 VH1 D76N VL2.3 (antibody, V domains shown) VH: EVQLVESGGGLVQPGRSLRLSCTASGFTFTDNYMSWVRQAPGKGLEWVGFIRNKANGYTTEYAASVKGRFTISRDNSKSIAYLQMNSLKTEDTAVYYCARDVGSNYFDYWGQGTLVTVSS VL: DIVMTQSPDSLAVSLGERATMSCKSSQSLFNSRTRKNYLAWYQQKPGQPPKLLIYWASARDSGVPDRFTGSGSETYFTLTISSLQAEDLAVYYCMQSFNLRTFGQGTKVEIK', '~21%');

--- query ---
humanized Mab hz515H7 VH1 D76N VL2.2 (antibody, V domains shown) VH: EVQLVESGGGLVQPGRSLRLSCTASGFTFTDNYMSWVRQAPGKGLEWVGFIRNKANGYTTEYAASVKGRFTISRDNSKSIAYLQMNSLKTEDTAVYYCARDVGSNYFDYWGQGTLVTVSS VL: DIVMTQSPDSLAVSLGERATMSCKSSQSLFNSRTRKNYLAWYQQKPGQPPKLLIYWASARDSGVPDRFTGSGSETYFTLTISRVQAEDVAVYYCMQSFNLRTFGQGTKVEIK has a reported % inhibition of SDF-1-induced BRET increase of ~33%

Source listed as patent US20130174288A1.
